Target: PLK1 (Homo sapiens, UniProt P53350)
Sequence (P53350 whole entry): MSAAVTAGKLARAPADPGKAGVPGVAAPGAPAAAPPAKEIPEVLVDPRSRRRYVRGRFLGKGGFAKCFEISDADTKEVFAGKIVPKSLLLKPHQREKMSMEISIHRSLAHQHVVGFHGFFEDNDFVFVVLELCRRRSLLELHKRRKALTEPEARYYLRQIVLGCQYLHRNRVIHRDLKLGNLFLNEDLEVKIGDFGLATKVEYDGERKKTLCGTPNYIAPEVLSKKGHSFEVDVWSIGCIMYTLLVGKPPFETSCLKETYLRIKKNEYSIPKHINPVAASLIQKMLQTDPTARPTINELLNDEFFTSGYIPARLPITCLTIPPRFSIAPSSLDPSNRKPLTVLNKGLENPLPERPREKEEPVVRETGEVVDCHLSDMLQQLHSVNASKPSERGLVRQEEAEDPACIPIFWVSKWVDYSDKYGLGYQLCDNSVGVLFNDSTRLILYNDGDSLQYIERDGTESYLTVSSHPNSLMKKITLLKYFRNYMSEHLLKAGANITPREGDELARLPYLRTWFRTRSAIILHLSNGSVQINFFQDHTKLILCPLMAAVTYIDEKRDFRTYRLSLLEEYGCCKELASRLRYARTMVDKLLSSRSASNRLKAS
Test: PLK1 protein kinase assay (CDC25C phosphorylation, [γ-32P]-ATP)
Type: biochemical
Settings: Table 2, PLK1 IC50; class symbols; read-out: PLK1 IC50
pIC50: −log10 of the molar value.
Attribute Measured: pIC50

{"columns": ["Compound", "Val"],
 "data": [
  ["CN1C(=O)CCN(C2CCCC2)c2nc(Nc3ccc4c(c3)NC(=O)CO4)ncc21 [compound 295]", "> 5.00"],
  ["CC(C)N1CCC(=O)N(C)c2cnc(Nc3ccc4c(c3)CS(=O)(=O)C4)nc21", "> 5.00"],
  ["COc1ccc(C(=O)NC2CCN(Cc3ccccc3)C2)cc1Nc1ncc2c(n1)N(C1CCCC1)CCC(=O)N2C (stereo not shown)", "> 6.00"],
  ["CC(=O)NCc1ccc(Nc2ncc3c(n2)N(C2CCCC2)CCC(=O)N3C)cc1", "> 5.00"],
  ["COCCNS(=O)(=O)c1cccc(Nc2ncc3c(n2)N(C2CCCC2)CCC(=O)N3C)c1", "> 5.00"]
]}

Required: pIC50, one value per compound below.
1. COc1cc(C(=O)NC2CCCC2)ccc1Nc1ncc2c(n1)N(C1CCCC1)CC1(CC1)C(=O)N2C
2. CN1C(=O)CCN(C2CCCC2)c2nc(Nc3ccc4c(c3)OCC(=O)N4)ncc21 [compound 294]
3. CNC(=O)c1ccc(Nc2ncc3c(n2)N(C2CCCC2)CCC(=O)N3C)c(OC)c1
4. COc1cc(C(=O)NCc2ccncc2)ccc1Nc1ncc2c(n1)N(C1CCCC1)CC(C)(C)C(=O)N2C
5. CN1CCC(NC(=O)Cc2ccc(Nc3ncc4c(n3)N(C3CCCC3)CCC(=O)N4C)cc2)CC1
6. CN1C(=O)CCN(C2CCCC2)c2nc(NC(=O)c3ccccc3)ncc21

Response:
1: > 7.00; 2: > 6.00; 3: > 7.00; 4: > 7.00; 5: > 5.00; 6: > 5.00

Required: pIC50, one value per compound below.
1. CC(=O)NCc1cccc(Nc2ncc3c(n2)N(C2CCCC2)CCC(=O)N3C)c1
2. COc1cc(C(=O)NC2CCN(C)CC2)ccc1Nc1ncc2c(n1)N(c1ccccc1F)CCC(=O)N2C

Response:
1: > 5.00; 2: > 6.00

Required: pIC50, one value per compound below.
1. CN1C(=O)CCN(C2CCCC2)c2nc(Nc3ccc(Cl)cc3)ncc21
2. CN1C(=O)CCN(C2CCCC2)c2nc(Nc3ccc4c(c3)CC(=O)N4)ncc21
3. COc1ccc(C(=O)NC2CCN(C)CC2)cc1Nc1ncc2c(n1)N(C1CCCC1)CCC(=O)N2C
4. COc1cc(C(=O)N[C@@H]2CN3CCC2CC3)ccc1Nc1ncc2c(n1)N(C1CCCC1)CC1(CC1)C(=O)N2C
5. CN1CCC(NC(=O)c2ccc(Nc3ncc4c(n3)N(C3CCCC3)CCC(=O)N4C)c(OC(F)(F)F)c2)CC1
6. COc1cc(C(=O)NC2CCN(Cc3ccccc3)CC2)ccc1Nc1ncc2c(n1)N(C1CCCC1)CC1(CCC1)C(=O)N2C
7. COc1cc(C(=O)NCC(C)(C)CN(C)C)ccc1Nc1ncc2c(n1)N(C1CCCC1)CCC(=O)N2C
8. CN1C(=O)CCN(C2CCCC2)c2nc(Nc3ccc4[nH]ncc4c3)ncc21

Response:
1: > 6.00; 2: > 5.00; 3: > 6.00; 4: > 7.00; 5: > 6.00; 6: > 6.00; 7: > 7.00; 8: > 6.00

Required: pIC50, one value per compound below.
1. CN1C(=O)CCN(C2CCCC2)c2nc(Nc3ccc4c(c3)C=CS4(=O)=O)ncc21
2. CNS(=O)(=O)c1ccc(Nc2ncc3c(n2)N(C2CCCC2)CCC(=O)N3C)cc1
3. COc1cc(C(=O)NC2CCN(C)CC2)ccc1Nc1ncc2c(n1)N(CC1CC1)CCC(=O)N2C
4. COc1cc(C(=O)NC2CC(C)(C)N(C)C(C)(C)C2)ccc1Nc1ncc2c(n1)N(CC(C)C)CCC(=O)N2C
5. CCN(CC)CCNC(=O)c1ccc(Nc2ncc3c(n2)N(c2ccccc2C)CCC(=O)N3C)c(OC)c1

Response:
1. > 6.00
2. > 5.00
3. > 7.00
4. > 6.00
5. > 5.00

---

Would you kindly list IC50 for each of these compounds?
Target: PLK1 (Homo sapiens, UniProt P53350)
Test: PLK1 protein kinase assay (CDC25C phosphorylation, [γ-32P]-ATP)
Format: biochemical
Details: Table 2, PLK1 IC50; class symbols; read-out: PLK1 IC50

Illustrative cases are given below, each with its answer.
{"columns": ["Compound", "IC50"],
 "data": [
  ["C=CCN1CCC(=O)N(C)c2cnc(Nc3ccc(C(=O)NC4CCN(C)CC4)cc3OC)nc21", "< 1000 nM"],
  ["COc1cc(C(=O)NC2CCN(S(C)(=O)=O)CC2)ccc1Nc1ncc2c(n1)N(C1CCCC1)CCC(=O)N2C", "< 1000 nM"],
  ["CN1CCC(NC(=O)c2ccc(Nc3ncc4c(n3)N(C3CCCC3)CCC(=O)N4C)c(F)c2)CC1", "< 100 nM"]
]}

Required: IC50, one value per compound below.
1. COc1cc(C(=O)NC2CCN(Cc3ccccc3)CC2)ccc1Nc1ncc2c(n1)N(C1CCCC1)CCC(=O)N2C
2. COc1cc(C(=O)NN2CCN(C)CC2)ccc1Nc1ncc2c(n1)N(C1CCCC1)CCC(=O)N2C
3. Cc1cc(C(=O)O)ccc1Nc1ncc2c(n1)N(C1CCCC1)CCC(=O)N2C
4. COc1cc(C(=O)NC(C)(C)CN2CCCCC2)ccc1Nc1ncc2c(n1)N(C1CCCC1)CC1(CC1)C(=O)N2C

Response:
1: < 100 nM; 2: < 100 nM; 3: < 1000 nM; 4: < 1000 nM

Required: IC50, one value per compound below.
1. CN1C(=O)CCN(C2CCCC2)c2nc(Nc3ccc(S(N)(=O)=O)cc3)ncc21
2. COc1cc(C(=O)NCc2cccn2C)ccc1Nc1ncc2c(n1)N(C1CCCC1)CCC(=O)N2C
3. CN1C(=O)CCN(C2CCCC2)c2nc(Nc3ccc4c(c3)CS(=O)(=O)C4)ncc21
4. COc1cc(C(=O)NCC2CCN(C)CC2)ccc1Nc1ncc2c(n1)N(C1CCCC1)CC(C)(C)C(=O)N2C

Response:
< 10000 nM
< 100 nM
< 10000 nM
< 100 nM

---

Molecular target: PLK1 (Homo sapiens)
Experiment: PLK1 protein kinase assay (CDC25C phosphorylation, [γ-32P]-ATP)
Type: biochemical
Conditions: Table 2, PLK1 IC50; class symbols; read-out: PLK1 IC50
Attribute Measured: IC50

Illustrative cases are given below, each with its answer.
{"columns": ["Compound", "IC50"],
 "data": [
  ["CN1CCC(NC(=O)CCc2ccc(Nc3ncc4c(n3)N(C3CCCC3)CCC(=O)N4C)cc2)CC1", "< 10000 nM"],
  ["COCCNS(=O)(=O)c1ccc(Nc2ncc3c(n2)N(C2CCCC2)CCC(=O)N3C)cc1", "< 10000 nM"],
  ["CN1CCC(NC(=O)c2ccc(Nc3ncc4c(n3)N(C3CCCC3)CCC(=O)N4C)c(Cl)c2)CC1", "< 100 nM"]
]}

Required: IC50, one value per compound below.
1. Cc1c(Nc2ncc3c(n2)N(C2CCCC2)CCC(=O)N3C)cccc1C(=O)NCCO
2. COc1ccc(C(=O)NCc2ccco2)cc1Nc1ncc2c(n1)N(C1CCCC1)CCC(=O)N2C
3. COc1cc(C(=O)NCC2CCN(C)CC2)ccc1Nc1ncc2c(n1)N(C1CCCC1)CCC(=O)N2C
4. COc1cc(C(=O)N[C@@H](CO)C(C)C)ccc1Nc1ncc2c(n1)N(C1CCCC1)CCC(=O)N2C
5. COc1cc(C(=O)NC2CCN(CC3CC3)CC2)ccc1Nc1ncc2c(n1)N(C1CCCC1)CCC(=O)N2C
6. CONC(=O)c1ccc(OC)c(Nc2ncc3c(n2)N(C2CCCC2)CCC(=O)N3C)c1
7. CN1C(=O)CCN(C2CCCC2)c2nc(Nc3ccc4cc[nH]c4c3)ncc21
8. COc1ccc(C(=O)NCC2CCN(C)CC2)cc1Nc1ncc2c(n1)N(C1CCCC1)CCC(=O)N2C

Response:
1. < 10000 nM
2. < 1000 nM
3. < 100 nM
4. < 1000 nM
5. < 100 nM
6. < 1000 nM
7. < 10000 nM
8. < 1000 nM

Required: IC50, one value per compound below.
1. CNC(=O)c1ccc(Nc2ncc3c(n2)N(C(C)C)CC2(CC2)C(=O)N3C)c(OC)c1
2. CN1C(=O)CCN(C2CCCC2)c2nc(Nc3ccc(C(=O)NC4CC4)cc3)ncc21
3. COc1cc(C(=O)NC2CCCN(C)C2)ccc1Nc1ncc2c(n1)N(CC(C)C)CCC(=O)N2C (stereo not shown)
4. CN1C(=O)CCN(C2CCCC2)c2nc(Nc3cccc(S(N)(=O)=O)c3)ncc21
5. COc1cc(C(=O)NC2CN3CCC2CC3)ccc1Nc1ncc2c(n1)N(CC(C)C)CCC(=O)N2C (stereo not shown)
6. CN1CCC(NS(=O)(=O)c2ccc(Nc3ncc4c(n3)N(C3CCCC3)CCC(=O)N4C)cc2)CC1

Response:
1: < 1000 nM; 2: < 1000 nM; 3: < 1000 nM; 4: < 1000 nM; 5: < 1000 nM; 6: < 10000 nM

Required: IC50, one value per compound below.
1. COc1ccc(C(=O)NCCOCCO)cc1Nc1ncc2c(n1)N(C1CCCC1)CCC(=O)N2C
2. COc1cc(C(=O)NC2CCN(C)CC2)ccc1Nc1ncc2c(n1)N(C(C)C)CCC(=O)N2C
3. CN1C(=O)C2(CCC2)CN(C2CCCC2)c2nc(Nc3ccc4c(c3)CS(=O)(=O)C4)ncc21
4. COc1cc(C(=O)NCC2CCCCN2C)ccc1Nc1ncc2c(n1)N(C1CCCC1)CCC(=O)N2C (stereo not shown)

Response:
1: < 1000 nM; 2: < 100 nM; 3: < 1000 nM; 4: < 100 nM

Required: IC50, one value per compound below.
1. COc1cc(C(=O)NC2CCN(Cc3ccccc3)C2)ccc1Nc1ncc2c(n1)N(C1CCCC1)CC1(CC1)C(=O)N2C (stereo not shown)
2. COc1cc(C(=O)NC2CCN(C)CC2)ccc1Nc1ncc2c(n1)N(C)CCC(=O)N2C

Response:
1: < 100 nM; 2: < 1000 nM

Required: IC50, one value per compound below.
1. COc1cc(C(=O)NC2CC(C)(C)N(C)C(C)(C)C2)ccc1Nc1ncc2c(n1)N(CC1CC1)CCC(=O)N2C
2. COc1cc(C(=O)NC2CN3CCC2CC3)ccc1Nc1ncc2c(n1)N(c1ccccc1OC)CCC(=O)N2C (stereo not shown)

Response:
1: < 1000 nM; 2: < 10000 nM

Required: IC50, one value per compound below.
1. COc1cc(C(=O)NC2CCCN(C)C2)ccc1Nc1ncc2c(n1)N(C1CCCC1)CC1(CC1)C(=O)N2C (stereo not shown)
2. CN1C(=O)CCN(C2CCCC2)c2nc(Nc3cccc(CN)c3)ncc21
3. CCC1CN(C2CCCC2)c2nc(Nc3ccc(C(=O)NC4CCN(C)CC4)cc3OC)ncc2N(C)C1=O (stereo not shown)
4. COc1cc(C(=O)NC(C)(C)CN2CCCC2)ccc1Nc1ncc2c(n1)N(C1CCCC1)CCC(=O)N2C
5. CN1C(=O)CCN(C2CCCC2)c2nc(Nc3ccccc3)ncc21

Response:
["< 100 nM", "< 10000 nM", "< 100 nM", "< 1000 nM", "< 10000 nM"]

Request: Kindly state the measured IC50 obtained for COc1cc(C(=O)NCCc2c[nH]cn2)ccc1Nc1ncc2c(n1)N(C1CCCC1)CC(C)(C)C(=O)N2C with PLK1 (Homo sapiens).
Response: < 100 nM
